- protocol.details: in vivo
- reported.conditions: male, Sprague-Dawley, rat, plasma, po, 0.72 g/kg, t 1/2, plasma PK-marker, rats, intragastric PCE 0.72 g/kg + CIP […]
measurement.label: half-life (min)
Report as a plain number; the unit min is understood.

Input: GET /values?readout=half-life&item= `O=C(O)c1ccc(O)c(O)c1`
Output: 45.6

---

- protocol.details: clinical
- reported.conditions: male, human, plasma, oral, V z/F, plasma PK-marker, human subjects, single dose of PCE (8 g) + CIP 0.5 g
measurement.label: Vd/F (L)
Report as a plain number; the unit L is understood.

Input: GET /values?readout=Vd/F&item= `O=C(O)c1ccc(O)c(O)c1`
Output: 149

Source listed as paper PMC9640990.
